# System: panel of eleven cancer cell lines and one normal cell line
# assay_summary: MTT cytotoxicity, panel of eleven cancer cell lines and one normal cell line
# Type: cell-based
# condition_details: read-out: average GI50
recorded_metric: GI50 (nM)
One number for each entry, in nM.

[[record]]
molecule = "C#CC(=O)N(c1ccccc1)C(C(=O)NC1CCCCC1)c1ccccc1 (racemic)"
experimental_target = "panel of eleven cancer cell lines and one normal cell line"
recorded_metric = "GI50"
meas_value = 1160


# batch size: 2; output GI50 per entry
1. O=C(NC1CCCCC1)C(c1ccccc1)N(C(=O)CC(F)(F)F)c1ccccc1 (racemic) [Compound 16g]
2. C#CC(=O)N(c1ccccc1)C(C(=O)NCc1ccccc1)c1ccccc1 (racemic) [Compound 17a]

7200
970

Lookup: GI50 / panel of eleven cancer cell lines and one normal cell line / C#CC(=O)N(c1ccccc1)C(C(=O)NCC(=O)OCC)c1ccccc1 (racemic) [Compound 18a]
1800
